# measuredOn: AtPYR1 with AtHAB1 (Arabidopsis thaliana, UniProt O49686)
# Construct: H6-SUMO-AtPYR1 (9-182) and biotin-MBP-AtHAB1 (172-511), E. coli; tags kept; with Protein phosphatase 2C 16
# Sequence (O49686 9-182): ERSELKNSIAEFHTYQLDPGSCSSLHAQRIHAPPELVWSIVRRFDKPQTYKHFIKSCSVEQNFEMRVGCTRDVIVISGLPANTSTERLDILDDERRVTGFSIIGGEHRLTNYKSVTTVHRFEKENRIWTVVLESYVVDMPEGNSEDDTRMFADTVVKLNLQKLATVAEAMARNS
# Sequence (Q9CAJ0 172-511 partner): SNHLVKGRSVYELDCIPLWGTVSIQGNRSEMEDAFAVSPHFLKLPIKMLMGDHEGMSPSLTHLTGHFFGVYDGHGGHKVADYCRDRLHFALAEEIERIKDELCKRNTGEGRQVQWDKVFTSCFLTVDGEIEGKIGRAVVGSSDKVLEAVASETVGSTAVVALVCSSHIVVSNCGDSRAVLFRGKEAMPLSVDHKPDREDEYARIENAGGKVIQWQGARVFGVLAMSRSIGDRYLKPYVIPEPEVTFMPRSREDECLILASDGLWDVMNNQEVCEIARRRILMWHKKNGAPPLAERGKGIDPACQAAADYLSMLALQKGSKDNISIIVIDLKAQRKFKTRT
# assayRemarks: AlphaScreen, ABA-dependent receptor-PP2C interaction

compound | measuredOn | EC50 [µM]
CC1=CC(=O)CC(C)(C)C1(O)/C=C/C(C)=C\C(=O)O (stereo in doubt) [(+)-ABA] | AtPYR1 with AtHAB1 (Arabidopsis thaliana, UniProt O49686) | 7.36

These data points were gathered from paper PMC5656587.
